# Test system: Lung cancer H460 cells
# ASSAY_METHOD_TEXT: In vitro antitumor activity test (MTT), H460
# Type: cell-based
# EXPERIMENTAL_CONTEXT: Homo sapiens, NCI-H460, 24 h
OUTCOME_MEASURE: IC50 (nM)

C/C(=C1/c2ccc(F)cc2C(CC(=O)NC(Cc2ccc(-c3ccccc3)cc2)C(=O)NC2CC(C)(C)NC(C)(C)C2)C1C)c1ccc([S+](C)[O-])cc1 (stereo not shown) [PL-AC-204]    21.6
COc1ccc2c(c1)c(CC(=O)NC(Cc1ccc(-c3ccccc3)cc1)C(=O)NC1CC(C)(C)NC(C)(C)C1)c(C)n2C(=O)c1ccc(Cl)cc1 (stereo not shown) [PL-AC-205]    20.3
COc1ccc2cc(C(C)C(=O)NC(Cc3ccc(-c4ccccc4)cc3)C(=O)NC3CC(C)(C)NC(C)(C)C3)ccc2c1 (stereo not shown) [PL-AC-202]    18.5
CC1(C)CC(NC(=O)C(Cc2ccc(-c3ccccc3)cc2)NC(=O)c2cc3ccccc3n2Cc2ccccc2)CC(C)(C)N1 (stereo not shown) [PL-AC-15, reference compound]    22
CC1(C)CC(NC(=O)C(Cc2ccc(-c3ccccc3)cc2)NC(=O)Cc2ccccc2Nc2c(Cl)cccc2Cl)CC(C)(C)N1 (stereo not shown) [PL-AC-203]    20.8
CC(C(=O)NC(Cc1ccc(-c2ccccc2)cc1)C(=O)NC1CC(C)(C)NC(C)(C)C1)c1cccc(C(=O)c2ccccc2)c1 (stereo not shown) [PL-AC-206]    20
CC(=O)Oc1ccccc1C(=O)NC(Cc1ccc(-c2ccccc2)cc1)C(=O)NC1CC(C)(C)NC(C)(C)C1 (stereo not shown) [PL-AC-201]    21.9

* * *

// values below are reported Body Weight After administration
# Tested on: Bel-7402 liver tumors
# ASSAY_METHOD_TEXT: Transplanted tumor in nude mice, intraperitoneal, Bel-7402
# Assay type: in vivo, BALB/c nude mice
# EXPERIMENTAL_CONTEXT: Bel-7402 tumor-bearing BALB/c mice, 5 mg/kg i.p. once every 3 days, 8 administrations
OUTCOME_MEASURE: Body Weight After administration (g)

CC1(C)CC(NC(=O)C(Cc2ccc(-c3ccccc3)cc2)NC(=O)c2cc3ccccc3n2Cc2ccccc2)CC(C)(C)N1 (stereo not drawn) [PL-AC-15, reference compound]    25.2
CC(=O)Oc1ccccc1C(=O)NC(Cc1ccc(-c2ccccc2)cc1)C(=O)NC1CC(C)(C)NC(C)(C)C1 (stereo not drawn)    23.2
CC1(C)CC(NC(=O)C(Cc2ccc(-c3ccccc3)cc2)NC(=O)Cc2ccccc2Nc2c(Cl)cccc2Cl)CC(C)(C)N1 (stereo not drawn)    24.1
COc1ccc2cc(C(C)C(=O)NC(Cc3ccc(-c4ccccc4)cc3)C(=O)NC3CC(C)(C)NC(C)(C)C3)ccc2c1 (stereo not drawn)    22.9
COc1ccc2c(c1)c(CC(=O)NC(Cc1ccc(-c3ccccc3)cc1)C(=O)NC1CC(C)(C)NC(C)(C)C1)c(C)n2C(=O)c1ccc(Cl)cc1 (stereo not drawn)    23.9
CC(C(=O)NC(Cc1ccc(-c2ccccc2)cc1)C(=O)NC1CC(C)(C)NC(C)(C)C1)c1cccc(C(=O)c2ccccc2)c1 (stereo not drawn)    23.8

* * *

Examples of compounds with documented Tumor weight follow.
# Tested on: Bel-7402 liver tumors
# ASSAY_METHOD_TEXT: Transplanted tumor in nude mice, intraperitoneal, Bel-7402
# Type: in vivo, BALB/c nude mice
# EXPERIMENTAL_CONTEXT: Bel-7402, 5 mg/kg i.p. once every 3 days, 8 administrations
OUTCOME_MEASURE: Tumor weight (mg)

CC1(C)CC(NC(=O)C(Cc2ccc(-c3ccccc3)cc2)NC(=O)Cc2ccccc2Nc2c(Cl)cccc2Cl)CC(C)(C)N1 (stereo not drawn)    327.4
CC(C(=O)NC(Cc1ccc(-c2ccccc2)cc1)C(=O)NC1CC(C)(C)NC(C)(C)C1)c1cccc(C(=O)c2ccccc2)c1 (stereo not drawn)    226.8
COc1ccc2cc(C(C)C(=O)NC(Cc3ccc(-c4ccccc4)cc3)C(=O)NC3CC(C)(C)NC(C)(C)C3)ccc2c1 (stereo not drawn)    213.3
COc1ccc2c(c1)c(CC(=O)NC(Cc1ccc(-c3ccccc3)cc1)C(=O)NC1CC(C)(C)NC(C)(C)C1)c(C)n2C(=O)c1ccc(Cl)cc1 (stereo not drawn)    242.8
CC(=O)Oc1ccccc1C(=O)NC(Cc1ccc(-c2ccccc2)cc1)C(=O)NC1CC(C)(C)NC(C)(C)C1 (stereo not drawn)    268.1
CC1(C)CC(NC(=O)C(Cc2ccc(-c3ccccc3)cc2)NC(=O)c2cc3ccccc3n2Cc2ccccc2)CC(C)(C)N1 (stereo not drawn) [PL-AC-15, reference compound]    302.9
